Test: Gastrointestinal toxicity in 8 hrs starved po dosed Charles River rat assessed as ulcerogenic effect after 18 hrs
Type: organism-based
Conditions: in vivo, read-out: UD50
QUANTITY MEASURED: TD50 at 18 h (mg/kg)

COMPOUND | QUANTITY MEASURED | VALUE MEASURED
CCc1cccc2c3c([nH]c12)C(CC)(CC(=O)O)OCC3 (stereo unspecified) [ETODOLAC] | TD50 at 18 h | 60
CCCCC1C(=O)N(c2ccccc2)N(c2ccccc2)C1=O [PHENYLBUTAZONE] | TD50 at 18 h | 100
CCC1(CC(=O)O)OCCc2c1[nH]c1c(C)c(F)ccc21 (stereo unspecified) | TD50 at 18 h | 26
COc1ccc2c(c1)c(CC(=O)O)c(C)n2C(=O)c1ccc(Cl)cc1 [INDOMETHACIN] | TD50 at 18 h | 6
CCC1(CC(=O)O)OCCc2c1[nH]c1c(C)c(Cl)ccc21 (stereo unspecified) | TD50 at 18 h | 25
CCCc1cccc2c3c([nH]c12)C(CC)(CC(=O)O)OCC3 (stereo unspecified) | TD50 at 18 h | 20
